assay: Dasatinib single oral gavage plasma pharmacokinetics (NLME modeling); type: in vivo, mouse; conditions: Base Model
experimentalReadout: V2 pop (L/kg)
Provide only the numeric value, understood in L/kg.

# input # query: V2 pop of entry Cc1nc(Nc2ncc(C(=O)Nc3c(C)cccc3Cl)s2)cc(N2CCN(CCO)CC2)n1
# output 11.1

====

test: Dasatinib single oral gavage plasma pharmacokinetics (NLME modeling); format: in vivo, mouse; settings: female, C57BL/6, mouse, plasma, oral, 10 mg/kg, GROUP:VD3 Def, SEX:F, OCC 2, time 0.125; read-out: DV (dasatinib plasma concentration)
experimentalReadout: concentration at […] (ng/mL)
Value expressed in ng/mL; do not type the unit.

# input What concentration at […] value was documented for this compound, Cc1nc(Nc2ncc(C(=O)Nc3c(C)cccc3Cl)s2)cc(N2CCN(CCO)CC2)n1 ?
# output 49

====

test: Repeated discontinuous oral DEX PK study (another 60 mice); assay type: in vivo, mouse; conditions: male, C57BL/6, mouse, plasma, oral, 8 mg/L, DEX conc, Average ± S.D. of quantifiable samples, plasma; repeated study; VD3 Deficient, M; Day 3.5; n=13
experimentalReadout: concentration at 3.5 day (nM)
Report only the number, with the unit nM understood.

# input compound: C[C@@H]1C[C@H]2[C@@H]3CCC4=CC(=O)C=C[C@]4(C)[C@@]3(F)[C@@H](O)C[C@]2(C)[C@@]1(O)C(=O)CO ; wanted: its concentration at 3.5 day
# output 16

====

test: Dasatinib single oral gavage plasma pharmacokinetics (NLME modeling); format: in vivo, mouse; conditions: male, C57BL/6, mouse, plasma, oral, 10 mg/kg, GROUP:VD3 Def, SEX:M, OCC 2, time 8; read-out: DV (dasatinib plasma concentration)
experimentalReadout: concentration at 8 h (ng/mL)
Give the value, in units of ng/mL, as a plain number.

# input What does the data say about its concentration at 8 h? Entry: Cc1nc(Nc2ncc(C(=O)Nc3c(C)cccc3Cl)s2)cc(N2CCN(CCO)CC2)n1 [dasatinib]
# output 15.5

====

experiment: Repeated discontinuous oral DEX PK study (another 60 mice); assay type: in vivo, mouse; conditions: female, C57BL/6, mouse, plasma, oral, 8 mg/L, DEX conc, Average ± S.D. of quantifiable samples, plasma; repeated study; VD3 Sufficient, F; Day 3.5; n=5
experimentalReadout: concentration at 3.5 day
Respond with a number, then the unit of measure.

# input Find the recorded concentration at 3.5 day belonging to C[C@@H]1C[C@H]2[C@@H]3CCC4=CC(=O)C=C[C@]4(C)[C@@]3(F)[C@@H](O)C[C@]2(C)[C@@]1(O)C(=O)CO [DEX, dexamethasone] and report it.
# output 47.2 nM

====

experiment: Repeated discontinuous oral DEX PK study (another 60 mice); assay type: in vivo, mouse; conditions: female, C57BL/6, mouse, plasma, oral, 8 mg/L, DEX conc, Average ± S.D. of quantifiable samples, plasma; repeated study; VD3 Sufficient, F; Day 17.5; n=5
experimentalReadout: concentration at 17.5 day (nM)
Provide the reading as a plain figure in nM.

# input Entry under review: C[C@@H]1C[C@H]2[C@@H]3CCC4=CC(=O)C=C[C@]4(C)[C@@]3(F)[C@@H](O)C[C@]2(C)[C@@]1(O)C(=O)CO . Reported concentration at 17.5 day?
# output 45.6

====

assay: Dasatinib single oral gavage plasma pharmacokinetics (NLME modeling); assay type: in vivo, mouse; conditions: female, C57BL/6, mouse, plasma, oral, 10 mg/kg, GROUP:VD3 Suf, SEX:F, OCC 1, time 0.5; read-out: DV (dasatinib plasma concentration)
experimentalReadout: concentration at 0.5 h (ng/mL)
Field: numeric (ng/mL). Do not append units.

# input Any idea what its concentration at 0.5 h is? The compound is Cc1nc(Nc2ncc(C(=O)Nc3c(C)cccc3Cl)s2)cc(N2CCN(CCO)CC2)n1
# output 231

====

test: Dasatinib single oral gavage plasma pharmacokinetics (NLME modeling); format: in vivo, mouse; conditions: Base Model
experimentalReadout: Q pop (mL/min/kg)
Respond numerically; units are mL/min/kg and should not be typed.

# input State the recorded Q pop for this entry: Cc1nc(Nc2ncc(C(=O)Nc3c(C)cccc3Cl)s2)cc(N2CCN(CCO)CC2)n1
# output 19.5

====

experiment: Plasma DEX concentrations on discontinuous oral DEX regimen in drinking water (Fig 3); type: in vivo, mouse; details: male, C57BL/6, mouse, plasma, oral, 8 mg/L, Dexamethasone conc, avg, plasma; male; VD3 deficient; day 17.5; n=13
experimentalReadout: concentration at 17.5 day (nM)
Report as a plain number; the unit nM is understood.

# input Need concentration at 17.5 day, item C[C@@H]1C[C@H]2[C@@H]3CCC4=CC(=O)C=C[C@]4(C)[C@@]3(F)[C@@H](O)C[C@]2(C)[C@@]1(O)C(=O)CO
# output 13.1

====

assay: Dasatinib single oral gavage plasma pharmacokinetics (NLME modeling); assay type: in vivo, mouse; conditions: male, C57BL/6, mouse, plasma, oral, 10 mg/kg, GROUP:VD3 Suf, SEX:M, OCC 1, time 0.25; read-out: DV (dasatinib plasma concentration)
experimentalReadout: concentration at […] (ng/mL)
// return numeric value only (unit: ng/mL, not printed)

# input # query: concentration at […] of entry Cc1nc(Nc2ncc(C(=O)Nc3c(C)cccc3Cl)s2)cc(N2CCN(CCO)CC2)n1
# output 110

====

assay: Dasatinib single oral gavage plasma pharmacokinetics (NLME modeling); format: in vivo, mouse; details: Final Model
experimentalReadout: V1 pop
Field: value (include unit after the number)

# input May I ask what V1 pop has been recorded for Cc1nc(Nc2ncc(C(=O)Nc3c(C)cccc3Cl)s2)cc(N2CCN(CCO)CC2)n1 [dasatinib] ?
# output 12.2 L/kg

====

assay: Dasatinib single oral gavage plasma pharmacokinetics (NLME modeling); format: in vivo, mouse; settings: female, C57BL/6, mouse, plasma, oral, 10 mg/kg, GROUP:VD3 Def, SEX:F, OCC 1, time 1; read-out: DV (dasatinib plasma concentration)
experimentalReadout: concentration at 1 h (ng/mL)
Give just the numeric value; ng/mL need not be written.

# input Recorded concentration at 1 h for Cc1nc(Nc2ncc(C(=O)Nc3c(C)cccc3Cl)s2)cc(N2CCN(CCO)CC2)n1 [dasatinib] , please?
# output 278

====

experiment: Dasatinib single oral gavage plasma pharmacokinetics (NLME modeling); assay type: in vivo, mouse; conditions: female, C57BL/6, mouse, plasma, oral, 10 mg/kg, GROUP:VD3 Def, SEX:F, OCC 2, time 0.25; read-out: DV (dasatinib plasma concentration)
experimentalReadout: concentration at […] (µg/mL)
Number only, in µg/mL; omit the unit.

# input Quick one: concentration at […] for Cc1nc(Nc2ncc(C(=O)Nc3c(C)cccc3Cl)s2)cc(N2CCN(CCO)CC2)n1 ?
# output 0.146

====

assay: Dasatinib single oral gavage plasma pharmacokinetics (NLME modeling); format: in vivo, mouse; conditions: both sexes, C57BL/6, mouse, plasma, po, 10 mg/kg, Base Model; 10 mg/kg oral gavage; read-out: Cl_pop (apparent oral clearance) (converted)
experimentalReadout: CL/F (mL/min/kg)
Use mL/min/kg as the unit, but write only the number.

# input Request the reported CL/F associated with Cc1nc(Nc2ncc(C(=O)Nc3c(C)cccc3Cl)s2)cc(N2CCN(CCO)CC2)n1
# output 112

====

experiment: Repeated discontinuous oral DEX PK study (another 60 mice); format: in vivo, mouse; conditions: female, C57BL/6, mouse, plasma, oral, 8 mg/L in drinking water, DEX conc, individual mouse; repeated study; VD3 Suf; 10.5 Days
experimentalReadout: concentration at 10.5 days (nM)
Give just the number in nM; leave the unit off.

# input Any idea what its concentration at 10.5 days is? The compound is C[C@@H]1C[C@H]2[C@@H]3CCC4=CC(=O)C=C[C@]4(C)[C@@]3(F)[C@@H](O)C[C@]2(C)[C@@]1(O)C(=O)CO
# output 6.84

====

assay: Dasatinib single oral gavage plasma pharmacokinetics (NLME modeling); assay type: in vivo, mouse; conditions: Base Model; 10 mg/kg oral gavage; zero order absorption duration
experimentalReadout: Tk0 pop (h)
Express the result in h but write the number alone.

# input Bench note: what Tk0 pop did Cc1nc(Nc2ncc(C(=O)Nc3c(C)cccc3Cl)s2)cc(N2CCN(CCO)CC2)n1 show?
# output 1.29

====

assay: Dasatinib single oral gavage plasma pharmacokinetics (NLME modeling); assay type: in vivo, mouse; details: female, C57BL/6, mouse, plasma, oral, 10 mg/kg, GROUP:VD3 Suf, SEX:F, OCC 1, time 4; read-out: DV (dasatinib plasma concentration)
experimentalReadout: concentration at 4 h (ng/mL)
Report only the number, with the unit ng/mL understood.

# input If you can, please state the reported concentration at 4 h value of Cc1nc(Nc2ncc(C(=O)Nc3c(C)cccc3Cl)s2)cc(N2CCN(CCO)CC2)n1 [dasatinib] .
# output 54.1

====

experiment: Plasma DEX concentrations on discontinuous oral DEX regimen in drinking water (Fig 3); assay type: in vivo, mouse; conditions: female, C57BL/6, mouse, plasma, oral, 8 mg/L, Dexamethasone conc, avg; VD3 sufficient; D3.5; n=5
experimentalReadout: concentration at 3.5 day
Value and unit, in that order.

# input Which concentration at 3.5 day reading was recorded for the molecule C[C@@H]1C[C@H]2[C@@H]3CCC4=CC(=O)C=C[C@]4(C)[C@@]3(F)[C@@H](O)C[C@]2(C)[C@@]1(O)C(=O)CO [DEX, dexamethasone] ?
# output 99.3 nM
